- Test system: EPHA4
- PARTICULARS: concentration: 1 μM,replicates: in singlicate; n = 1;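 note: KINOMEscan kinase panel screen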
Below, each of the compounds is paired with its reported %Inh value.
Provide only the numeric value, understood in %.

INSERT INTO results (compound, result_unit, measured) VALUES
  ('O=C(Nc1ccc(Oc2ccc3nc(NC(=O)C4CC4)cn3n2)c(F)c1)c1cccn(-c2ccccc2)c1=O', '%', 26),
  ('CC(=O)Nc1nc2cnc(Nc3cc(NC(=O)c4cccc(CC(C)(C)C#N)c4)ccc3C)nc2s1', '%', 54),
  ('COc1cccc(C2=C(Nc3cccc(Cl)c3)C(=O)NC2=O)c1 [SB-341556]', '%', 23),
  ('N#Cc1cccc(C(=O)NC2CCN(c3ccnc(Nc4ccc(F)cc4)n3)C2)c1 (centres unmarked) [GSK1379708]', '%', 0),
  ('COc1cccc(OC)c1C(=O)Nc1cccc(-c2nn3ccccc3c2-c2ccnc(Nc3cccc(F)c3)n2)c1 [GSK361065]', '%', 0);

The reported %Inh of the compound Cc1ccc(Nc2ccnc(Nc3ccc4c(c3)CS(=O)(=O)C4)n2)cc1O.Cl [GW579362] was 53

Lab note: NC(=O)Nc1sc(-c2ccc(F)cc2)cc1C(N)=O [GW789449] gave %Inh of 14

Noted for CN(c1cccc(CNc2nc(Nc3ccc4c(c3)CC(=O)N4)ncc2C(F)(F)F)c1)S(C)(=O)=O : its %Inh reads 1

====

- System: TTK
- PARTICULARS: concentration: 1 μM,replicates: in singlicate; n = 1
EXPERIMENTAL ENDPOINT: %Inh (%)
Numbers only here, please. The scale is %.

Please review the following examples before continuing.
INSERT INTO assay_data (mol_smiles, experimental_endpoint, measured) VALUES
  ('C[C@@H](Oc1cc(-n2cnc3ccc(-c4ccncc4)cc32)sc1C(N)=O)c1ccccc1Cl', '%Inh', 34),
  ('COC(=O)c1cccc(NC(=O)NC2CCN(c3ccnc(NCc4ccc(F)cc4)n3)CC2)c1', '%Inh', 0),
  ('O=C(Nc1cccc(C(F)(F)F)c1)c1cccc(Oc2ccc3nccn3n2)c1', '%Inh', 0);

response.value for O=C(NOCC1CC1)c1cc(Br)c(F)c(F)c1Nc1ccc(I)cc1Cl (field: %Inh) = 0

%Inh recorded for this compound, O=C(Nc1ccccc1)c1cccc(Oc2ccc3nccn3n2)c1 , is 0

====

- Test system: SYK
- PARTICULARS: concentration: 1 μM,replicates: in singlicate; n = 1
Recorded %Inh, one value per entry.

Below, 5 compounds whose answers are already recorded.
INSERT INTO measurements (compound, measured) VALUES
  ('COc1cc(Nc2nccc(N3CCC(NC(=O)c4cccc(C#N)c4)C3)n2)cc(OC)c1OC (centres unmarked) [GSK1379751]', '0%'),
  ('N#Cc1cccc(C(=O)NC2CCN(c3ccnc(Nc4ccc(F)cc4)n3)C2)c1 (centres unmarked) [GSK1379708]', '27%'),
  ('COc1cc2c(Nc3ccc(NC(=O)c4ccccc4)cc3)ncnc2cc1OCCCN1CCOCC1 [GSK301329]', '7%'),
  ('c1ccc(Oc2ccc(Nc3ccnc4ccc(-c5ccccn5)cc34)cc2)cc1 [GW407034]', '1%'),
  ('CC(=O)Nc1nc2cnc(Nc3cc(NC(=O)c4cccc(CC(C)(C)C#N)c4)ccc3C)nc2s1', '0%');

Briefly, %Inh measured for Cn1ccc2ncnc(Oc3ccc(NC(=O)Nc4cccc(C(F)(F)F)c4)c(Cl)c3)c21 : 1%

// %Inh value for CCn1c(-c2nonc2N)nc2cncc(Br)c21 [SB-738004] : 8%

The recorded %Inh for entry CN(c1ccc2c(c1)nc(NCc1ccc(F)cc1)n2C)c1ccnc(Nc2ccc(CS(C)(=O)=O)cc2)n1.Cl [GW813244] equals 73%

Lookup result for O=C(NOCC1CC1)c1cc(Br)c(F)c(F)c1Nc1ccc(I)cc1Cl ; measured %Inh: 13%

Value source: paper PMC5540273
